Origin of the recorded values: patent US20260124191A1

molecules and their reported IC50
Test system: human breast cancer cells MCF7
experimentDescription: In vitro anti-tumor activity, MTT method
Format: cell-based
experimentalConditions: Homo sapiens, MCF7, 96 h, MCF-7, MTT, 96-hour treatment

O=C(CCCN1C(=O)C/C(=C\c2ccccc2)C1=O)N[C@H]1CCCC[C@@H]1O [Example I-10]: > 20 µM
O=C(CCCCCCN1C(=O)C/C(=C\c2ccccc2)C1=O)N[C@H]1CCCC[C@@H]1O [Example I-13]: > 20 µM

From here, focus on the item given below.
### Prompt Give human breast cancer cells MCF7 IC50 for O=C(CCCCCCN1C(=O)C/C(=C\c2cccc(Br)c2)C1=O)NO [Example I-27]
### Response 0.83 µM
